- Test system: HIVDRV^RP20
- Protocol text: microbe, parasite or virus in culture
- Assay type: cell-based, HIV-1
- Measurement conditions: Human immunodeficiency virus 1, MT4, read-out: IC50 ± SD
Property measured: pIC50
Scale explanation: pIC50 corresponds to minus log10 of a concentration expressed in moles per litre.

Request: May I ask what pIC50 has been recorded for `CC(C)CN(C[C@@H](O)[C@H](Cc1ccccc1)NC(=O)O[C@H]1CO[C@H]2OCC[C@H]21)S(=O)(=O)c1ccc(N)cc1` ?
Response: 7.22

====

- System name: HIV-1 protease (Human immunodeficiency virus type 1 group M subtype B)
Property measured: Ki (pM)
Respond with the bare value in pM.

Request: May I ask what Ki has been recorded for CC(C)CN(C[C@@H](O)[C@H](Cc1cc(F)cc(F)c1)NC(=O)O[C@H]1C2CO[C@H]3OC[C@@H]1C3C2)S(=O)(=O)c1ccc(N)cc1 (some centres unmarked) ?
Response: 4

Switching to the query record.
Request: May I ask what Ki has been recorded for CC(C)CN(C[C@@H](O)[C@H](Cc1cc(F)cc(F)c1)NC(=O)O[C@H]1C2CO[C@H]3OC[C@@H]1C3C2)S(=O)(=O)c1ccc2nc(NC3CC3)sc2c1 (some centres unmarked) ?
Response: 14
